- System: NCI/ADR-RES
- EXPERIMENT SUMMARY: cells
- Type: cell-based, human
- EXPERIMENTAL SETUP: NCI/ADR-RES cells; read-out: IC50, NCI/ADR-RES

{"MOLECULE": "CON([C@H]1CC[C@@]2(C)[C@H](CC[C@@H]3[C@@H]2CC[C@]2(C)[C@@H](C4=CC(=O)OC4)CC[C@]32O)C1)[C@@H]1O[C@H](CO)[C@H](O)[C@@H](O)[C@H]1O [25β, D-guloside]", "RELATIONAL OPERATOR": "=", "IC50, µM": 1.1}
{"MOLECULE": "CON(C1CCC2(C)C(CCC3C2CCC2(C)C(C4=CC(=O)OC4)CCC32O)C1)C1OC(CO)C(O)C(O)C1O [28α, L-idoside]", "RELATIONAL OPERATOR": ">", "IC50, µM": 25}
{"MOLECULE": "CON(C1CCC2(C)C(CCC3C2CCC2(C)C(C4=CC(=O)OC4)CCC32O)C1)C1OC(CO)C(O)C(O)C1O [39β, L-taloside]", "RELATIONAL OPERATOR": "=", "IC50, µM": 1}
{"MOLECULE": "CON(C1CCC2(C)C(CCC3C2CCC2(C)C(C4=CC(=O)OC4)CCC32O)C1)C1OC(C)C(O)C(O)C1O [11β, 6-deoxy-D-glucoside]", "RELATIONAL OPERATOR": "=", "IC50, µM": 0.95}
{"MOLECULE": "CON(C1CCC2(C)C(CCC3C2CCC2(C)C(C4=CC(=O)OC4)CCC32O)C1)C1CC(O)C(O)C(CO)O1 [9α, 2-deoxy-D-galactoside]", "RELATIONAL OPERATOR": ">", "IC50, µM": 25}
{"MOLECULE": "CON(C1CCC2(C)C(CCC3C2CCC2(C)C(C4=CC(=O)OC4)CCC32O)C1)C1OC(CO)C(O)C(O)C1O [21α, L-galactoside]", "RELATIONAL OPERATOR": ">", "IC50, µM": 25}
{"MOLECULE": "CON(C1CCC2(C)C(CCC3C2CCC2(C)C(C4=CC(=O)OC4)CCC32O)C1)C1OC(CO)C(OC2OC(CO)C(O)C(O)C2O)C(O)C1O (stereo not drawn) [37β, maltoside]", "RELATIONAL OPERATOR": "=", "IC50, µM": 4.4}
{"MOLECULE": "CON(C1CCC2(C)C(CCC3C2CCC2(C)C(C4=CC(=O)OC4)CCC32O)C1)C1OC(C)C(O)C(O)C1O [7α, L-fucoside]", "RELATIONAL OPERATOR": ">", "IC50, µM": 25}
{"MOLECULE": "CON(C1CCC2(C)C(CCC3C2CCC2(C)C(C4=CC(=O)OC4)CCC32O)C1)C1OC(CO)C(O)C(O)C1O [27α, D-mannoside]", "RELATIONAL OPERATOR": ">", "IC50, µM": 25}
{"MOLECULE": "CON(C1CCC2(C)C(CCC3C2CCC2(C)C(C4=CC(=O)OC4)CCC32O)C1)C1OC(CO)C(O)C(O)C1O [18α, D-alloside]", "RELATIONAL OPERATOR": ">", "IC50, µM": 25}
{"MOLECULE": "CON(C1CCC2(C)C(CCC3C2CCC2(C)C(C4=CC(=O)OC4)CCC32O)C1)C1OC(C)C(O)C(O)C1O [11α, 6-deoxy-D-glucoside]", "RELATIONAL OPERATOR": ">", "IC50, µM": 25}
{"MOLECULE": "CON([C@H]1CC[C@@]2(C)[C@H](CC[C@@H]3[C@@H]2CC[C@]2(C)[C@@H](C4=CC(=O)OC4)CC[C@]32O)C1)[C@H]1OC[C@H](O)[C@@H](O)[C@H]1O [14β, L-lyxoside]", "RELATIONAL OPERATOR": "=", "IC50, µM": 0.73}

---

- Tested on: HCT-116
- EXPERIMENT SUMMARY: High-throughput calcein AM cytotoxicity assay, HCT-116
- Format: cell-based, human
- EXPERIMENTAL SETUP: HCT-116 cells; read-out: IC50, HCT-116
pIC50: −log10 of the molar value.

{"COMPOUND": "CONC1CC[C@]2(C)C3CC[C@]4(C)[C@@H](C5=CC(=O)OC5)CC[C@]4(O)C3CC[C@@H]2C1 (stereo partly drawn) [3β, R—C(3)aglycon]", "MEASURED TARGET": "HCT-116", "RELATIONAL OPERATOR": "=", "pIC50": 5.92}
{"COMPOUND": "CON(C1CCC2(C)C(CCC3C2CCC2(C)C(C4=CC(=O)OC4)CCC32O)C1)C1OC(CO)C(O)C(O)C1O [28α, L-idoside]", "MEASURED TARGET": "HCT-116", "RELATIONAL OPERATOR": "<", "pIC50": 4.60}
{"COMPOUND": "CON([C@H]1CC[C@@]2(C)[C@H](CC[C@@H]3[C@@H]2CC[C@]2(C)[C@@H](C4=CC(=O)OC4)CC[C@]32O)C1)[C@H]1OC[C@H](O)[C@@H](O)[C@@H]1O [23β, L-xyloside]", "MEASURED TARGET": "HCT-116", "RELATIONAL OPERATOR": "=", "pIC50": 7.00}
{"COMPOUND": "CON(C1CCC2(C)C(CCC3C2CCC2(C)C(C4=CC(=O)OC4)CCC32O)C1)C1OC(CO)C(O)CC1O [10α, 3-deoxy-D-glucoside]", "MEASURED TARGET": "HCT-116", "RELATIONAL OPERATOR": "<", "pIC50": 4.60}
{"COMPOUND": "CON([C@H]1CC[C@@]2(C)[C@H](CC[C@@H]3[C@@H]2CC[C@]2(C)[C@@H](C4=CC(=O)OC4)CC[C@]32O)C1)[C@H]1O[C@@H](CO)[C@H](O)[C@@H](O)[C@H]1O [26β, L-mannoside]", "MEASURED TARGET": "HCT-116", "RELATIONAL OPERATOR": "=", "pIC50": 5.38}
{"COMPOUND": "CON(C1CCC2(C)C(CCC3C2CCC2(C)C(C4=CC(=O)OC4)CCC32O)C1)C1OC(COC2OC(CO)C(O)C(O)C2O)C(O)C(O)C1O (stereo not drawn) [35β, melibioside]", "MEASURED TARGET": "HCT-116", "RELATIONAL OPERATOR": "<", "pIC50": 4.60}
{"COMPOUND": "CON(C1CCC2(C)C(CCC3C2CCC2(C)C(C4=CC(=O)OC4)CCC32O)C1)C1OC(CO)C(O)C(O)C1O [19α, L-altroside]", "MEASURED TARGET": "HCT-116", "RELATIONAL OPERATOR": "<", "pIC50": 4.60}
{"COMPOUND": "CON(C1CCC2(C)C(CCC3C2CCC2(C)C(C4=CC(=O)OC4)CCC32O)C1)C1OC(C)C(O)C(O)C1O [7α, L-fucoside]", "MEASURED TARGET": "HCT-116", "RELATIONAL OPERATOR": "<", "pIC50": 4.60}
{"COMPOUND": "CON([C@H]1CC[C@@]2(C)[C@H](CC[C@@H]3[C@@H]2CC[C@]2(C)[C@@H](C4=CC(=O)OC4)CC[C@]32O)C1)[C@@H]1O[C@H](CO)[C@@H](O)[C@H](O)[C@H]1F [12β, 2-deoxy-2-fluoro-D-glucoside]", "MEASURED TARGET": "HCT-116", "RELATIONAL OPERATOR": "=", "pIC50": 5.10}
{"COMPOUND": "CON(C1CCC2(C)C(CCC3C2CCC2(C)C(C4=CC(=O)OC4)CCC32O)C1)C1OC(CO)C(O)C(O)C1O [21α, L-galactoside]", "MEASURED TARGET": "HCT-116", "RELATIONAL OPERATOR": "<", "pIC50": 4.60}
{"COMPOUND": "CON(C1CCC2(C)C(CCC3C2CCC2(C)C(C4=CC(=O)OC4)CCC32O)C1)C1OCC(O)C(O)C1O [24α, D-xyloside]", "MEASURED TARGET": "HCT-116", "RELATIONAL OPERATOR": "<", "pIC50": 4.60}
{"COMPOUND": "CON(C1CCC2(C)C(CCC3C2CCC2(C)C(C4=CC(=O)OC4)CCC32O)C1)C1OC(CO)C(O)C(O)C1O [42β, L-glucoside]", "MEASURED TARGET": "HCT-116", "RELATIONAL OPERATOR": "=", "pIC50": 6.05}
{"COMPOUND": "CON([C@H]1CC[C@@]2(C)[C@H](CC[C@@H]3[C@@H]2CC[C@]2(C)[C@@H](C4=CC(=O)OC4)CC[C@]32O)C1)[C@H]1O[C@@H](CO)[C@H](O)[C@H](O)[C@H]1O [19β, L-altroside]", "MEASURED TARGET": "HCT-116", "RELATIONAL OPERATOR": "=", "pIC50": 5.96}
{"COMPOUND": "CON(C1CCC2(C)C(CCC3C2CCC2(C)C(C4=CC(=O)OC4)CCC32O)C1)C1OC(CO)C(OC2OC(CO)C(O)C(O)C2O)C(O)C1O (stereo not drawn) [36β, lactoside]", "MEASURED TARGET": "HCT-116", "RELATIONAL OPERATOR": "<", "pIC50": 4.60}
{"COMPOUND": "CON(C1CCC2(C)C(CCC3C2CCC2(C)C(C4=CC(=O)OC4)CCC32O)C1)C1OC(CO)C(O)C(O)C1F [12α, 2-deoxy-2-fluoro-D-glucoside]", "MEASURED TARGET": "HCT-116", "RELATIONAL OPERATOR": "<", "pIC50": 4.60}
{"COMPOUND": "CON(C1CCC2(C)C(CCC3C2CCC2(C)C(C4=CC(=O)OC4)CCC32O)C1)C1OCC(O)C(O)C1O [6α, D-riboside]", "MEASURED TARGET": "HCT-116", "RELATIONAL OPERATOR": "<", "pIC50": 4.60}
{"COMPOUND": "CON([C@H]1CC[C@@]2(C)[C@H](CC[C@@H]3[C@@H]2CC[C@]2(C)[C@@H](C4=CC(=O)OC4)CC[C@]32O)C1)[C@@H]1O[C@H](CO)[C@@H](O)[C@@H](O)[C@@H]1O [20β, D-altroside]", "MEASURED TARGET": "HCT-116", "RELATIONAL OPERATOR": "=", "pIC50": 5.96}
{"COMPOUND": "CON(C1CCC2(C)C(CCC3C2CCC2(C)C(C4=CC(=O)OC4)CCC32O)C1)C1OC(C)C(O)C(O)C1O [11β, 6-deoxy-D-glucoside]", "MEASURED TARGET": "HCT-116", "RELATIONAL OPERATOR": "=", "pIC50": 5.64}
{"COMPOUND": "CON(C1CCC2(C)C(CCC3C2CCC2(C)C(C4=CC(=O)OC4)CCC32O)C1)C1OC(CO)C(O)C(O)C1O [18α, D-alloside]", "MEASURED TARGET": "HCT-116", "RELATIONAL OPERATOR": "<", "pIC50": 4.60}
{"COMPOUND": "CON([C@H]1CC[C@@]2(C)[C@H](CC[C@@H]3[C@@H]2CC[C@]2(C)[C@@H](C4=CC(=O)OC4)CC[C@]32O)C1)[C@H]1OC[C@H](O)[C@@H](O)[C@H]1O [14β, L-lyxoside]", "MEASURED TARGET": "HCT-116", "RELATIONAL OPERATOR": "=", "pIC50": 5.10}
{"COMPOUND": "CON([C@H]1CC[C@@]2(C)[C@H](CC[C@@H]3[C@@H]2CC[C@]2(C)[C@@H](C4=CC(=O)OC4)CC[C@]32O)C1)[C@H]1O[C@@H](C)[C@@H](O)[C@@H](O)[C@@H]1O [7β, L-fucoside]", "MEASURED TARGET": "HCT-116", "RELATIONAL OPERATOR": "=", "pIC50": 5.92}
{"COMPOUND": "CON([C@H]1CC[C@@]2(C)[C@H](CC[C@@H]3[C@@H]2CC[C@]2(C)[C@@H](C4=CC(=O)OC4)CC[C@]32O)C1)[C@@H]1O[C@H](CO)[C@@H](O)C[C@H]1O [10β, 3-deoxy-D-glucoside]", "MEASURED TARGET": "HCT-116", "RELATIONAL OPERATOR": "=", "pIC50": 5.74}
